Values from ChEMBL document CHEMBL3124843

test: Cytotoxicity against human HuH7 cells infected with Hepatitis C virus subtype 2a; assay type: cell-based, Huh-7

[
  {
    "chemical_smiles": "CSc1ncnc2c1c(-c1ccoc1)cn2[C@@H]1O[C@H](CO)[C@@H](O)[C@H]1O",
    "CC50": "> 44 µM"
  },
  {
    "chemical_smiles": "CNc1ncnc2c1c(-c1ccoc1)cn2[C@@H]1O[C@H](CO)[C@@H](O)[C@H]1O",
    "CC50": "> 44 µM"
  },
  {
    "chemical_smiles": "Cc1ncnc2c1c(-c1cc3ccccc3o1)cn2[C@@H]1O[C@H](CO)[C@@H](O)[C@H]1O",
    "CC50": "> 44 µM"
  },
  {
    "chemical_smiles": "Cc1ncnc2c1c(I)cn2[C@@H]1O[C@H](CO)[C@@H](O)[C@H]1O",
    "CC50": "13.8 µM"
  },
  {
    "chemical_smiles": "CN(C)c1ncnc2c1c(I)cn2[C@@H]1O[C@H](CO)[C@@H](O)[C@H]1O",
    "CC50": "> 44 µM"
  },
  {
    "chemical_smiles": "CN(C)c1ncnc2c1c(-c1cc3ccccc3o1)cn2[C@@H]1O[C@H](CO)[C@@H](O)[C@H]1O",
    "CC50": "> 44 µM"
  },
  {
    "chemical_smiles": "CNc1ncnc2c1ccn2[C@@H]1O[C@H](CO)[C@@H](O)[C@H]1O",
    "CC50": "> 44 µM"
  },
  {
    "chemical_smiles": "CN(C)c1ncnc2c1c(-c1ccoc1)cn2[C@@H]1O[C@H](CO)[C@@H](O)[C@H]1O",
    "CC50": "> 44 µM"
  },
  {
    "chemical_smiles": "CNc1ncnc2c1c(I)cn2[C@@H]1O[C@H](CO)[C@@H](O)[C@H]1O",
    "CC50": "> 44 µM"
  },
  {
    "chemical_smiles": "Cc1ncnc2c1c(-c1ccccc1)cn2[C@@H]1O[C@H](CO)[C@@H](O)[C@H]1O",
    "CC50": "> 44 µM"
  },
  {
    "chemical_smiles": "CNc1ncnc2c1c(-c1cc3ccccc3o1)cn2[C@@H]1O[C@H](CO)[C@@H](O)[C@H]1O",
    "CC50": "> 44 µM"
  },
  {
    "chemical_smiles": "Cc1ncnc2c1ccn2[C@@H]1O[C@H](CO)[C@@H](O)[C@H]1O",
    "CC50": "0.12 µM"
  },
  {
    "chemical_smiles": "Nc1ncnc2c1c(-c1ccco1)cn2[C@@H]1O[C@H](CO)[C@@H](O)[C@H]1O",
    "CC50": "> 44 µM"
  },
  {
    "chemical_smiles": "Nc1ncnc2c1c(-c1cccs1)cn2[C@@H]1O[C@H](CO)[C@@H](O)[C@H]1O",
    "CC50": "> 44 µM"
  },
  {
    "chemical_smiles": "O=c1[nH]cnc2c1c(-c1ccsc1)cn2[C@@H]1O[C@H](CO)[C@@H](O)[C@H]1O",
    "CC50": "> 44 µM"
  },
  {
    "chemical_smiles": "Cc1ncnc2c1c(-c1ccco1)cn2[C@@H]1O[C@H](CO)[C@@H](O)[C@H]1O",
    "CC50": "43.6 µM"
  },
  {
    "chemical_smiles": "Cc1nc(N)c2ccn([C@@H]3O[C@H](CO)[C@@H](O)[C@H]3O)c2n1",
    "CC50": "> 44 µM"
  },
  {
    "chemical_smiles": "Nc1nc(N)c2c(-c3ccccc3)cn([C@@H]3O[C@H](CO)[C@@H](O)[C@H]3O)c2n1",
    "CC50": "> 44 µM"
  },
  {
    "chemical_smiles": "O=c1[nH]cnc2c1c(-c1cc3ccccc3o1)cn2[C@@H]1O[C@H](CO)[C@@H](O)[C@H]1O",
    "CC50": "> 44 µM"
  }
]
